So I've got a bunch of compounds here, and I need their IC50, maltase values.
test system: maltase
experiment description: α-glycosidase-inhibiting activity, maltase (small intestinal brush border membrane vesicles)
Format: biochemical
experimental parameters: substrate maltose (74 mM), 0.1 M maleic acid buffer pH 6.0, 37° C., 30 minutes, glucose-oxidase method
Could you give me the number in µg/mL? Just the number is fine.

IN: Look up IC50, maltase with maltase for this compound: O=S(=O)([O-])OC(C(O)C[S+]1CC(O)C(O)C1CO)C(O)C(O)C(O)CO (single isomer, unassigned) [kotalanol, reference compound]
OUT: 3.07

IN: Form field: IC50, maltase recorded for O=S(=O)([O-])OC(C(O)C[S+]1CC(O)C(O)C1CO)C(O)C(O)C(O)CO (single isomer, unassigned) [Compound (6d)] with maltase (enter value)
OUT: 24.8

IN: I'm curious: which IC50, maltase was measured for O=S(=O)([O-])OC(C(O)C[S+]1CC(O)C(O)C1CO)C(O)C(O)C(O)CO (single isomer, unassigned) [Compound (6a)] tested on maltase?
OUT: 20.6
